The reported numbers originate from the Human Domainome abundance scans (Beltran et al. 2025).

B1: Ankyrin-3, residues 4094 to 4171; numbered along this chain, Q12955 (parent)
chain: MAIVADHLGLSWTELARELNFSVDEINQIRVENPNSLISQSFMLLKKWVTRDGKNATTDALTSVLTKINRIDIVTLLE

# Variants of: B1
# method: abundance fitness (aPCA) (normalised: wild type 0, dead -1); higher = more abundant; growth selection in yeast, the domain comes from the species named
# particulars: Homo sapiens
measureName: abundance fitness

Hey, quick one: what's abundance fitness for each of these?
1. V49C
2. K46R

[out]
1. -0.095
2. -0.018

For every record below, what is its abundance fitness?
1. R17V
2. I26M
3. S63D
4. S36N

[out]
1. -0.161
2. -0.544
3. 0.054
4. -0.044

List abundance fitness for every entry below, keeping the order given.
1. K47S
2. I38P
3. I73H
4. N20M

[out]
1. -0.068
2. -0.041
3. -0.715
4. -0.113

Batch request: abundance fitness per item, same order as input.
1. F21A
2. V23T
3. M43W
4. A60I
5. E25P
6. D72W
7. I29E

[out]
1: -0.842; 2: -0.023; 3: -0.168; 4: -0.28; 5: -0.957; 6: -0.894; 7: -0.174

Field: abundance fitness. Fill in for each record below.
1. K54Q
2. S41I
3. L76P
4. S41G
5. I3Y
6. E78C
7. F21G
8. Q28D

[out]
1. -0.054
2. -0.74
3. -0.438
4. -0.047
5. -0.486
6. -0.275
7. -0.7
8. 0.044

// for each variant in input: emit abundance fitness
1. L76C
2. T58F
3. T57L
4. D72Q

[out]
1: -0.045; 2: -0.112; 3: -0.798; 4: -0.702

Below are 8 variants. Give each one its abundance fitness.
1. I38S
2. E25L
3. S36M
4. M43C
5. I73V
6. W48H
7. A5H
8. L44T

[out]
[0.078, -0.862, -0.778, 0.1, -0.276, -0.752, -0.716, -0.561]

Report abundance fitness for every entry below.
1. V49T
2. D6I

[out]
[-0.115, -0.755]
